experiment: Toxicity liver stage against HepG2, at 10uM; type: cell-based; parameters: test concentration 10 uM, cell line HepG2-A16-CD81EGFP; conditions: human, HepG2-A16-CD81EGFP cells; read-out: INHIBITION
endpoint.label: cytotoxicity at 10 µM (%)
Express the result in % but write the number alone.

Example results:
# molecule, cytotoxicity at 10 µM [%]
measured = [
    ("CCn1c(C)nnc1SCCNC(=O)c1cccc2ccnn12", -54.6),
    ("Cc1cc(C(F)(F)F)nn1CC(C)C(=O)Nc1cccnc1 (configuration not stated)", 11.5),
    ("O=C1NCCN1C1CCN(Cc2coc(-c3ccccc3)n2)CC1", -1.54),
    ("CS(=O)(=O)c1cccc(C(=O)NCC2Cc3ccccc3O2)c1 (configuration not stated)", -1.26),
    ("Cc1cn(-c2ccccc2)nc1NS(=O)(=O)c1cc(C(=O)O)ccc1Cl", 13.1),
]

CC(C)N1CC2(CCCN(Cc3noc(C4CCCC4)n3)C2)CCC1=O (configuration not stated) has a reported cytotoxicity at 10 µM of 0.00194
